TARGET_OR_TEST_SYSTEM: recombinant human SGK-1 enzyme (Homo sapiens, UniProt O00141)
Sequence (O00141 whole entry, looked up): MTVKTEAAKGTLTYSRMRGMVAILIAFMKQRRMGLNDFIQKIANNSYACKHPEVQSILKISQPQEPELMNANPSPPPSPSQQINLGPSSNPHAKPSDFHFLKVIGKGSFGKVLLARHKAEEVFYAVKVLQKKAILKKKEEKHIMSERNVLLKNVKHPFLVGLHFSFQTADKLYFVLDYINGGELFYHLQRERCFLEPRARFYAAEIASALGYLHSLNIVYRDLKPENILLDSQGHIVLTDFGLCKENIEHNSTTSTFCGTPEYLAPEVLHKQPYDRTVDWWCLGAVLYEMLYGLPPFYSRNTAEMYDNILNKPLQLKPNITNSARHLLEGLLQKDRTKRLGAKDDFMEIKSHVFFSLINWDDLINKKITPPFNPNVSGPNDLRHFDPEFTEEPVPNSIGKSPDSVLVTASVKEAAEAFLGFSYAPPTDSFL
PROTOCOL_DETAILS: Enzymatic activity assay: SGK-1 substrate peptide phosphorylation (Caliper lab-chip mobility shift)
Format: biochemical
PROTOCOL_CONDITIONS: peptide substrate 1 μM, ATP 10 μM, 60 min at 37° C., read-out: IC50 values for inhibition of SGK-1 enzymatic activity
Procedure: In one of the cellular assays, the SGK-1 dependent phosphorylation of glycogen synthase kinase 3beta (GSK3beta) in U2OS cells was measured, in another one, a functional electrophysiological assay, the SGK-1 dependent activation of epithelial Na^+ channel (ENaC) currents in A6 cell monolayers, and in another one chondrocyte hypertrophic differentiation in mouse chondrogenic ATDC5 cells. A) Enzymatic Activity Assay […]
Measured pIC50 of individual entries
// pIC50 is dimensionless: -log10 of concentration (M)

Sample answers from the record:
molecule="COc1ccc(Cl)c(S(=O)(=O)Nc2ccc(-c3nc(N4CC(CO)C4)c4cn[nH]c4n3)cc2)c1 [Example 110]" quantity_measured=pIC50 endpoint_value=7.85
molecule="COCCc1nc(-c2ccc(NS(=O)(=O)c3cc(OC)ccc3F)cc2)nc2[nH]nc(N)c12 [Example 504]" quantity_measured=pIC50 endpoint_value=7.92
molecule="Cc1n[nH]c2nc(-c3ccc(NS(=O)(=O)c4ccccc4F)cc3)nc(OCCCN)c12 [Example 211]" quantity_measured=pIC50 endpoint_value=8.64

Sample Cc1n[nH]c2nc(-c3ccc(NS(=O)(=O)c4cc(F)ccc4F)cc3)nc(OC3CCN(C4CCC4)CC3)c12 [Example 398] — what was its pIC50?
7.60

What value of pIC50 has been reported for the following molecule? COc1ccc(Cl)c(S(=O)(=O)Nc2ccc(-c3nc(OCCC(N)=O)c4cn[nH]c4n3)cc2)c1 [Example 117]
8.64

Fill blank: measured pIC50 of the molecule Nc1n[nH]c2nc(-c3ccc(NS(=O)(=O)c4cc(F)c(F)cc4F)cc3)ncc12 [Example 516] is ____.
6.52

For the molecule shown here, COc1nc(-c2ccc(NS(=O)(=O)c3cc(C)ccc3C#N)cc2)nc2[nH]ncc12 [Example 135] , give the reported pIC50.
7.92

# lookup: pIC50 of Cc1n[nH]c2nc(-c3ccc(NS(=O)(=O)c4cc5c(cc4Cl)OCCO5)cc3)ncc12 [Example 103]
8.64

For Cc1nc(-c2ccc(NS(=O)(=O)c3ccc(F)cc3Cl)cc2)nc2[nH]nc(N)c12 [Example 164] , what is its reported pIC50?
7.40

Which pIC50 reading was recorded for the molecule Cc1ccc(F)c(S(=O)(=O)Nc2ccc(-c3nc(OCC4O[C@H](O)[C@H](O)[C@@H](O)[C@@H]4O)c4cn[nH]c4n3)cc2)c1 (stereo partly drawn) [Example 123] ?
8.00

Suppose we examine the molecule COc1ccc(F)c(S(=O)(=O)Nc2ccc(-c3nc(OC4CCNCC4F)c4c(C)n[nH]c4n3)cc2)c1 (stereo not drawn) [Example 302] ; what pIC50 value has been reported?
8.72

What value of pIC50 has been recorded for this entry: COc1ccc(F)c(S(=O)(=O)Nc2ccc(-c3nc(OCC4CNCCO4)c4c(C)n[nH]c4n3)cc2)c1 (stereo not drawn) [Example 295]
8.59

The measurements presented in this section are drawn from patent US9718825B2.
